- experimental_system: PSA (Homo sapiens)
- Sequence (P07288 25-261): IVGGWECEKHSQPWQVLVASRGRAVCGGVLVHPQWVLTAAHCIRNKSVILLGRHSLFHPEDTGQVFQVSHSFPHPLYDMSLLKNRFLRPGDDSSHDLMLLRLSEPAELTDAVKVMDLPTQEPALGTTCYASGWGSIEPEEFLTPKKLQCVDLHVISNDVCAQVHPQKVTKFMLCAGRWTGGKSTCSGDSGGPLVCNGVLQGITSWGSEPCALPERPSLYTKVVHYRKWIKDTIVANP
- procedure_summary: PSA cleavage of peptide-linker-drug conjugates, disappearance monitored by HPLC
- Type: biochemical
- measurement_parameters: T1/2 (-PSA) / T1/2 (+PSA)
Numbered stars: 1 amine (or outer) side, 2 acyl side, 3 side chain; on linkers, the order of the positions; unused ones are H or OH. Square brackets hold non-standard residues; d marks the D form. Peptide text beside a SMILES is read from it. * marks the point of attachment. X5 = NP(=O)(OCc1c(F)c(F)c(N*)c(F)c1F)N(CCCl)CCCl; X4 = NP(=O)(OCc1c(F)cc(N*)cc1F)N(CCCl)CCCl; Glutaryl = O=C(CCCC(=O)[*:2])[*:1]; Hyp = O=C(O)[C@@H]1C[C@@H](O)CN1; Chg = N[C@H](C(=O)O)C1CCCCC1
readout_name: Stability Ratio between T1/2 in the absence and presence of PSA
Provide a numeric answer; units are not to be included.

Return reported Stability Ratio between T1/2 in the absence and presence of PSA. Input molecule: C[C@H](NC(=O)[C@@H]1C[C@@H](O)CN1C(=O)CCCC(=O)O)C(=O)N[C@@H](CO)C(=O)N[C@H](C(=O)N[C@@H](CCC(N)=O)C(=O)Nc1cc(F)c(COP(N)(=O)N(CCCl)CCCl)c(F)c1)C1CCCCC1 (some centres unmarked) [5d] (Glutaryl-[Hyp]AS[Chg]Q-X4)
75

Tell me its Stability Ratio between T1/2 in the absence and presence of PSA given C[C@H](NC(=O)[C@@H]1C[C@@H](O)CN1C(=O)CCCC(=O)O)C(=O)N[C@@H](CO)C(=O)N[C@H](C(=O)N[C@@H](CCC(N)=O)C(=O)Nc1c(F)c(F)c(COP(N)(=O)N(CCCl)CCCl)c(F)c1F)C1CCCCC1 (some centres unmarked) [5e] (Glutaryl-[Hyp]AS[Chg]Q-X5) as the entry.
162

* * *

- procedure_summary: Stability of peptide-linker-drug conjugates in the absence of PSA, disappearance monitored by HPLC
- Type: physicochemical
- measurement_parameters: 0.1 M phosphate buffer, pH 7.4, 37° C., read-out: T1/2 -PSA (stability) (converted)
Numbered stars: 1 amine (or outer) side, 2 acyl side, 3 side chain; on linkers, the order of the positions; unused ones are H or OH. Square brackets hold non-standard residues; d marks the D form. Peptide text beside a SMILES is read from it. * marks the point of attachment. X5 = NP(=O)(OCc1c(F)c(F)c(N*)c(F)c1F)N(CCCl)CCCl; X1 = NP(=O)(OCc1ccc(N*)cc1F)N(CCCl)CCCl; Glutaryl = O=C(CCCC(=O)[*:2])[*:1]; Hyp = O=C(O)[C@@H]1C[C@@H](O)CN1; Chg = N[C@H](C(=O)O)C1CCCCC1
readout_name: half-life (h)
Answer in h, number only, no unit symbol.

compound | output_unit | half-life
C[C@H](NC(=O)[C@@H]1C[C@@H](O)CN1C(=O)CCCC(=O)O)C(=O)N[C@@H](CO)C(=O)N[C@H](C(=O)N[C@@H](CCC(N)=O)C(=O)Nc1c(F)c(F)c(COP(N)(=O)N(CCCl)CCCl)c(F)c1F)C1CCCCC1 (some centres unmarked) [5e] (Glutaryl-[Hyp]AS[Chg]Q-X5) | h | 178

Name the recorded half-life of the item C[C@H](NC(=O)[C@@H]1C[C@@H](O)CN1C(=O)CCCC(=O)O)C(=O)N[C@@H](CO)C(=O)N[C@H](C(=O)N[C@@H](CCC(N)=O)C(=O)Nc1ccc(COP(N)(=O)N(CCCl)CCCl)c(F)c1)C1CCCCC1 (some centres unmarked) [5b] (Glutaryl-[Hyp]AS[Chg]Q-X1) in your answer.
105

* * *

- procedure_summary: Stability of peptide-linker-drug conjugates in the absence of PSA, disappearance monitored by HPLC
- Assay type: physicochemical
- measurement_parameters: 0.1 M phosphate buffer, pH 7.4, 37° C., read-out: T1/2 -PSA (stability) (converted)
Numbered stars: 1 amine (or outer) side, 2 acyl side, 3 side chain; on linkers, the order of the positions; unused ones are H or OH. Square brackets hold non-standard residues; d marks the D form. Peptide text beside a SMILES is read from it. * marks the point of attachment. X4 = NP(=O)(OCc1c(F)cc(N*)cc1F)N(CCCl)CCCl; X2 = NP(=O)(OCc1ccc(N*)c(F)c1)N(CCCl)CCCl; X3 = NP(=O)(OCc1ccc(N*)cc1)N(CCCl)CCCl; Glutaryl = O=C(CCCC(=O)[*:2])[*:1]; Hyp = O=C(O)[C@@H]1C[C@@H](O)CN1; Chg = N[C@H](C(=O)O)C1CCCCC1
readout_name: half-life

The cases that follow already have their half-life on record.
molecule | half-life
C[C@H](NC(=O)[C@@H]1C[C@@H](O)CN1C(=O)CCCC(=O)O)C(=O)N[C@@H](CO)C(=O)N[C@H](C(=O)N[C@@H](CCC(N)=O)C(=O)Nc1cc(F)c(COP(N)(=O)N(CCCl)CCCl)c(F)c1)C1CCCCC1 (stereo partly drawn) [5d] (Glutaryl-[Hyp]AS[Chg]Q-X4) | 131 h
C[C@H](NC(=O)[C@@H]1C[C@@H](O)CN1C(=O)CCCC(=O)O)C(=O)N[C@@H](CO)C(=O)N[C@H](C(=O)N[C@@H](CCC(N)=O)C(=O)Nc1ccc(COP(N)(=O)N(CCCl)CCCl)cc1F)C1CCCCC1 (stereo partly drawn) [5c] (Glutaryl-[Hyp]AS[Chg]Q-X2) | 462 h

Let's switch to this molecule now.
Given the molecule C[C@H](NC(=O)[C@@H]1C[C@@H](O)CN1C(=O)CCCC(=O)O)C(=O)N[C@@H](CO)C(=O)N[C@H](C(=O)N[C@@H](CCC(N)=O)C(=O)Nc1ccc(COP(N)(=O)N(CCCl)CCCl)cc1)C1CCCCC1 (stereo partly drawn) [5a] (Glutaryl-[Hyp]AS[Chg]Q-X3) , write its reported half-life.
48 h

* * *

- experimental_system: UniProtKB P07288
- procedure_summary: PSA cleavage of peptide-linker-drug conjugates, disappearance monitored by HPLC
- Format: biochemical
- measurement_parameters: PSA, in the presence of PSA; read-out: t½ in the presence of PSA
Numbered stars: 1 amine (or outer) side, 2 acyl side, 3 side chain; on linkers, the order of the positions; unused ones are H or OH. Square brackets hold non-standard residues; d marks the D form. Peptide text beside a SMILES is read from it. * marks the point of attachment. X2 = NP(=O)(OCc1ccc(N*)c(F)c1)N(CCCl)CCCl; X1 = NP(=O)(OCc1ccc(N*)cc1F)N(CCCl)CCCl; Glutaryl = O=C(CCCC(=O)[*:2])[*:1]; Hyp = O=C(O)[C@@H]1C[C@@H](O)CN1; Chg = N[C@H](C(=O)O)C1CCCCC1
molecules and their reported half-life
Please give a number only; it is taken to be in min.

molecule | endpoint_value
C[C@H](NC(=O)[C@@H]1C[C@@H](O)CN1C(=O)CCCC(=O)O)C(=O)N[C@@H](CO)C(=O)N[C@H](C(=O)N[C@@H](CCC(N)=O)C(=O)Nc1ccc(COP(N)(=O)N(CCCl)CCCl)cc1F)C1CCCCC1 (some centres unmarked) [5c] (Glutaryl-[Hyp]AS[Chg]Q-X2) | 57

Supply measured half-life of C[C@H](NC(=O)[C@@H]1C[C@@H](O)CN1C(=O)CCCC(=O)O)C(=O)N[C@@H](CO)C(=O)N[C@H](C(=O)N[C@@H](CCC(N)=O)C(=O)Nc1ccc(COP(N)(=O)N(CCCl)CCCl)c(F)c1)C1CCCCC1 (some centres unmarked) [5b] (Glutaryl-[Hyp]AS[Chg]Q-X1) in your reply.
43
